Value source: PubChem BioAssay (EPA / NIEHS)

- Read-out: Tissue plasminogen activator (tPA), PLAT (gene 5327)
- assay: BSK_BF4T_tPA: BioMAP Diversity Plus: BF4T Assay for Tissue plasminogen activator (tPA) Biomarker Activity (AID 2284272)
- assay-context: primary human bronchial epithelial cells with fibroblasts
Calls of active or inactive are those of the source. Rule for the calls: active = hit-call score of the fitted dose curve at least 0.9, where 1 is the maximum; inactive = score below 0.9.
measure: outcome

[[record]]
molecule = "OC(O)(C(F)C(O)(O)C(F)(F)F)C(F)(F)F"
measure = "outcome"
result = "inactive"

[[record]]
molecule = "C[Si](C)(C)C(F)(F)C(F)(F)C(F)(F)F"
measure = "outcome"
result = "inactive"

[[record]]
molecule = "O=S(=O)(O)CCC(F)(F)C(F)(F)C(F)(F)C(F)(F)C(F)(F)C(F)(F)F"
measure = "outcome"
result = "inactive"

[[record]]
molecule = "FC(F)(F)COC(OCC(F)(F)F)OCC(F)(F)F"
measure = "outcome"
result = "inactive"

[[record]]
molecule = "FC(F)C(F)(F)COCC1CO1 (stereo unspecified)"
measure = "outcome"
result = "inactive"

[[record]]
molecule = "FC(F)=C(F)C(F)(F)C(F)(F)C(F)(F)C(F)(F)C(F)(F)C(F)(F)F"
measure = "outcome"
result = "inactive"


---

- Read-out: Interleukin 6 (IL6), IL6 (gene 3569)
- assay: LTEA_HepaRG_IL6: Life Technologies and Expression Analysis (LTEA) Assay for Interleukin 6 (IL6) using HepaRG (AID 2283509)
- assay-context: mRNA level, 48 h; actives raise or lower the signal
Active and inactive are the calls of the source. Rule for the calls: active = hit-call score of the fitted dose curve at least 0.9, where 1 is the maximum; inactive = score below 0.9.
Classes used: 1 (yes) = active, 0 (no) = inactive

[[record]]
compound = "CCCCN1C(=O)[C@@H]([C@H](O)C2CCCCC2)NC(=O)C12CCN(Cc1ccc(Oc3ccc(C(=O)O)cc3)cc1)CC2"
cat = "1 (yes)"

[[record]]
compound = "COc1cc2c(c(OC)c1OC)-c1ccc(OC)c(=O)cc1[C@@H](NC(C)=O)CC2"
cat = "1 (yes)"

[[record]]
compound = "CCOc1ccc2[nH]cc(C(=O)NCc3ccccc3)c(=O)c2n1"
cat = "0 (no)"

[[record]]
compound = "CCCCC(CC)C(=O)OCCOCCOCCOC(=O)C(CC)CCCC (stereo not drawn)"
cat = "0 (no)"

[[record]]
compound = "O=S1(=O)CCCO1"
cat = "0 (no)"

[[record]]
compound = "Cc1nc(-c2ccccn2)ncc1C(=O)Nn1cc(C)c2cc(F)ccc21"
cat = "0 (no)"

[[record]]
compound = "NC(=O)N(O)[C@@H]1COc2cc(OCc3ccccc3)ccc21"
cat = "0 (no)"

[[record]]
compound = "CCCC(CCC)C(=O)O"
cat = "0 (no)"

[[record]]
compound = "CCCc1ccccc1"
cat = "0 (no)"

[[record]]
compound = "C=CN1CCCC1=O"
cat = "0 (no)"

[[record]]
compound = "CC(C)CC(C)O (stereo not drawn)"
cat = "0 (no)"

[[record]]
compound = "Cn1cc[nH]c1=S"
cat = "0 (no)"

[[record]]
compound = "CCCCOC(=O)c1ccccc1"
cat = "0 (no)"


---

- assay: APR_HepG2_StressKinase_72hr: Apredica 72-hour HepG2 Assay for Stress Kinase (AID 2282921)
- assay-context: HepG2 stress kinase (phospho-c-Jun) imaging, actives raise or lower the signal
The source made the active and inactive calls. How the source made its calls: active means hit-call score of the fitted dose curve at least 0.9, where 1 is the maximum; inactive means score below 0.9.
Outcome codes: TRUE for active, FALSE for inactive

[[record]]
compound = "CCOC(N)=O"
cat = "FALSE"

[[record]]
compound = "CCCCC(CC)C(=O)OCCOCCOCCOC(=O)C(CC)CCCC (stereo unspecified)"
cat = "FALSE"

[[record]]
compound = "c1ccc2ncccc2c1"
cat = "FALSE"

[[record]]
compound = "c1ccc2c(c1)-c1cccc3c1c-2cc1ccccc13"
cat = "FALSE"

[[record]]
compound = "OCC(CO)(CO)CO"
cat = "FALSE"

[[record]]
compound = "OC[C@H]1O[C@@](CO)(O[C@H]2O[C@H](CO)[C@@H](O)[C@H](O)[C@H]2O)[C@@H](O)[C@@H]1O"
cat = "FALSE"

[[record]]
compound = "OCc1ccccc1"
cat = "FALSE"

[[record]]
compound = "CCN(CC)C(=S)SSC(=S)N(CC)CC"
cat = "TRUE"

[[record]]
compound = "CCCc1ccccc1"
cat = "FALSE"

[[record]]
compound = "CC[C@H](C)C(=O)O[C@H]1C[C@H](O)C=C2C=C[C@H](C)[C@H](CC[C@@H](O)C[C@@H](O)CC(=O)O)[C@H]21"
cat = "FALSE"

[[record]]
compound = "C[C@@H](Oc1ccc(CNC(=O)c2cccnc2Oc2ccc3c(c2)OCO3)c(F)c1)C(=O)O"
cat = "FALSE"

[[record]]
compound = "Cc1ccc(S(=O)(=O)NC(=O)NN2CCCCCC2)cc1"
cat = "FALSE"

[[record]]
compound = "O=S(=O)(O)c1ccc(N=Nc2c(O)ccc3cc(S(=O)(=O)O)ccc23)cc1"
cat = "FALSE"

[[record]]
compound = "CC(C)CCCCCCOC(=O)C1CCCCC1C(=O)OCCCCCCC(C)C (stereo unspecified)"
cat = "FALSE"

[[record]]
compound = "c1ccc(C(O[C@@H]2CCCN(CCc3ccc4c(c3)OCO4)C2)c2ccccc2)cc1"
cat = "TRUE"

[[record]]
compound = "OC[C@H]1O[C@@H]2O[C@H]3[C@H](O)[C@@H](O)[C@@H](O[C@H]4[C@H](O)[C@@H](O)[C@@H](O[C@H]5[C@H](O)[C@@H](O)[C@@H](O[C@H]6[C@H](O)[C@@H](O)[C@@H](O[C@H]7[C@H](O)[C@@H](O)[C@@H](O[C@H]1[C@H](O)[C@H]2O)O[C@@H]7CO)O[C@@H]6CO)O[C@@H]5CO)O[C@@H]4CO)O[C@@H]3CO"
cat = "FALSE"


---

- Read-out: C-C motif chemokine 2 (Homo sapiens)
- assay: BSK_KF3CT_MCP1: BioMAP Diversity Plus: KF3CT Assay for Monocyte Chemoattractant Protein 1 (MCP1/CCL2) Biomarker Activity (AID 2283073)
- assay-context: primary human keratinocytes with fibroblasts; actives raise or lower the signal
Calls of active or inactive are those of the source. The calls were made as follows: active = hit-call score of the fitted dose curve at least 0.9, where 1 is the maximum; inactive = score below 0.9.
Possible outcomes: class 1 for active, class 0 for inactive

[[record]]
chem_smiles = "CCCCN1C(=O)[C@@H]([C@H](O)C2CCCCC2)NC(=O)C12CCN(Cc1ccc(Oc3ccc(C(=O)O)cc3)cc1)CC2"
cat = "class 0"

[[record]]
chem_smiles = "O=C(O)[C@H](O)[C@@H](O)C(=O)O"
cat = "class 0"

[[record]]
chem_smiles = "CC(C)c1nnc2ccc(-c3ocnc3-c3cc(F)ccc3F)cn12"
cat = "class 0"

[[record]]
chem_smiles = "CC1(C)C(=O)N(Cl)C(=O)N1Cl"
cat = "class 0"

[[record]]
chem_smiles = "OCc1c[nH]c2ccccc12"
cat = "class 0"

[[record]]
chem_smiles = "CCn1nc(C)c2c1C(=O)NCC(c1ccc(O)cc1)=N2"
cat = "class 0"

[[record]]
chem_smiles = "Cc1nccn1-c1ccc(Sc2cccc(C3(C(N)=O)CCOCC3)c2)cc1"
cat = "class 0"

[[record]]
chem_smiles = "CCOc1ccc2[nH]cc(C(=O)NCc3ccccc3)c(=O)c2n1"
cat = "class 0"

[[record]]
chem_smiles = "CCc1ccc(O)c(C(C)(C)C)c1"
cat = "class 1"

[[record]]
chem_smiles = "C=CN1CCCC1=O"
cat = "class 0"

[[record]]
chem_smiles = "C[Si](C)(C)C(F)(F)C(F)(F)C(F)(F)F"
cat = "class 0"

[[record]]
chem_smiles = "CCCc1ccccc1"
cat = "class 0"

[[record]]
chem_smiles = "FC(F)(F)C(F)(F)C(F)(F)C(F)(F)C(F)(F)C(F)(F)I"
cat = "class 0"

[[record]]
chem_smiles = "CCCCCCCCCCCCCCO"
cat = "class 0"

[[record]]
chem_smiles = "FC(F)=C(F)C(F)(F)C(F)(F)C(F)(F)C(F)(F)C(F)(F)C(F)(F)F"
cat = "class 0"

[[record]]
chem_smiles = "O=c1[nH]cnc2c1ncn2[C@H]1CC[C@@H](CO)O1"
cat = "class 0"

[[record]]
chem_smiles = "Nc1ccn([C@@H]2O[C@H](CO)[C@@H](O)[C@@H]2O)c(=O)n1"
cat = "class 0"

[[record]]
chem_smiles = "O=C(O)c1ccc2c(c1)nc(C(=O)NC1CCN(C3CC3)CC1)n2Cc1cc(-c2ccc(Cl)s2)on1"
cat = "class 0"

[[record]]
chem_smiles = "CCCC(CCC)C(=O)O"
cat = "class 0"

[[record]]
chem_smiles = "O=C(NO)C1(NS(=O)(=O)c2ccc(Oc3ccc(F)cc3)cc2)CCOCC1"
cat = "class 0"

[[record]]
chem_smiles = "O=S1(=O)CCCO1"
cat = "class 0"

[[record]]
chem_smiles = "COCc1nnc(-c2ccc[n+]([O-])c2)n1-c1c(Cl)c(Cl)cc2[nH]c(=O)c(=O)[nH]c12"
cat = "class 0"

[[record]]
chem_smiles = "C[C@]12C=CC(=O)C=C1CC[C@H]1[C@@H]3C[C@@H](O)[C@](O)(C(=O)CO)[C@@]3(C)C[C@H](O)[C@@]12F"
cat = "class 0"

[[record]]
chem_smiles = "CCCCOC(=O)c1ccccc1"
cat = "class 0"

